# Tested on: CCRIS mutagenicity, Ames/micronucleus/aberration tests
# TEST METHOD NOTES: CCRIS mutagenicity studies
# CONDITION DESCRIPTION: Test System: AMES SALMONELLA TYPHIMURIUM; Strain/Indicator: TA100; Metabolic Activation: RAT, LIVER, S-9, 3-METHYLCHOLANTHRENE; Method: STANDARD PLATE
Calls of active or inactive are those of the source. The rule behind the calls is not given here.
RECORDED ENDPOINT: mutagenic call

Record excerpt, results attached:
[[record]]
smiles_string = "c1ccc2c3c4c(cc5ccccc5c4cc2c1)C1=C3CCCC1"
recorded_endpoint = "mutagenic call"
assay_value = "active; positive"

[[record]]
smiles_string = "O=C(O)c1cc2c(c3c1c([N+](=O)[O-])cc1ccccc13)OCO2"
recorded_endpoint = "mutagenic call"
assay_value = "active; positive"

[[record]]
smiles_string = "O=[N+]([O-])c1cc2[nH]c3ccc4ccccc4c3c2c2ccc(O)cc12"
recorded_endpoint = "mutagenic call"
assay_value = "active; positive"

[[record]]
smiles_string = "c1ccc2c(c1)-c1cc3ccccc3c3cc4c(c-2c13)CCCC4"
recorded_endpoint = "mutagenic call"
assay_value = "active; positive"

[[record]]
smiles_string = "c1ccc2cc3c(ccc4ccccc43)cc2c1"
recorded_endpoint = "mutagenic call"
assay_value = "active; positive"


Req: Returns the measured mutagenic call for the input molecule. Input: `O=[N+]([O-])c1cc2[nH]c3ccc4c(O)cccc4c3c2c2ccccc12`
Resp: active; positive
